Target: Pax5(1-149) Q22A;Ets-1(280-440) (human;murine, UniProt Q02548;P27577 1-149;280-440, Q22A|)
Sequence (Q02548 1-149 Q22A, chain 1 of 2): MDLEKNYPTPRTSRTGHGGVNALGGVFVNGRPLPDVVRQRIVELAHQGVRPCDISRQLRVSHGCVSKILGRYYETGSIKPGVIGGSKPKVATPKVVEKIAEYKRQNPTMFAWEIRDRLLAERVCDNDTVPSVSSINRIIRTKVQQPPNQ
Sequence (P27577 280-440, chain 2 of 2): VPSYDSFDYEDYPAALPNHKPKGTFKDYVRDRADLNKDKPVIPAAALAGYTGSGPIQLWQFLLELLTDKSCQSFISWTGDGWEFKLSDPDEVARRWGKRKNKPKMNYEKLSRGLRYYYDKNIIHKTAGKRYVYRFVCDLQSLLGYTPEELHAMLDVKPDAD
Experiment: EMSA
observed-property: Kd (nM)

> print(dat)
                                     binder  observed.property  units.of.measure  measured.value
1  P5-EBS probe (dsDNA) DNA 1: TCGAAGGGCCACTGGAGCCCATCTCCGGCACGGC DNA 2: TCGAGCCGTGCCGGAGATGGGCTCCAGTGGCCCT                 Kd                nM             162
